Give inhibition at 10 µM for every item shown.
Assayed System: human PDE9A2 (Homo sapiens)
Construct: made in house; host or cells: Sf9 insect cells (infected); crude lysate used as enzyme source
Test Description: PDE9A2 enzymatic activity assay (scintillation proximity assay, SPA)
Assay type: biochemical
Settings: read-out: % inhibition of PDE9A2 (at 10 micromolar concentration), 10 micromolar concentration; values above 100% adjusted to 100%
Write the answer as a number in %, unit excluded.

Report inhibition at 10 µM for CN(C)C(=O)N1CCCC(n2ncc3c(=O)[nH]c(Cc4ccccc4)nc32)C1 (racemic) please.
100

Report inhibition at 10 µM for CCC(CC)Cc1nc2c(cnn2C2CCCOC2)c(=O)[nH]1 (racemic) please.
99

Report inhibition at 10 µM for O=c1[nH]c(CC2CCCC2)nc2c1cnn2C1CCOCC1 please.
99

Report inhibition at 10 µM for CC(C)Cc1nc2c(cnn2C2CCCN(C(=O)OC(C)(C)C)C2)c(=O)[nH]1 (racemic) please.
98

Report inhibition at 10 µM for CC(C)Cc1nc2c(cnn2C2CCOC2)c(=O)[nH]1 (single isomer, unassigned) [Example 132-3] please.
89

Report inhibition at 10 µM for CN1CCCC(n2ncc3c(=O)[nH]c(Cc4ccccc4)nc32)C1 (racemic) please.
93

Report inhibition at 10 µM for O=c1[nH]c(CC2CCC2)nc2c1cnn2C1CCNC1 (racemic) please.
85

Report inhibition at 10 µM for O=c1[nH]c(CC2CCCC2)nc2c1cnn2C1CCNC1 (racemic) please.
97

----------
Assayed System: human PDE9A2 (Homo sapiens, UniProt O76083)
Construct: made in house; host or cells: Sf9 insect cells (infected); crude lysate used as enzyme source
Sequence (O76083 1-533 isoform O76083-2): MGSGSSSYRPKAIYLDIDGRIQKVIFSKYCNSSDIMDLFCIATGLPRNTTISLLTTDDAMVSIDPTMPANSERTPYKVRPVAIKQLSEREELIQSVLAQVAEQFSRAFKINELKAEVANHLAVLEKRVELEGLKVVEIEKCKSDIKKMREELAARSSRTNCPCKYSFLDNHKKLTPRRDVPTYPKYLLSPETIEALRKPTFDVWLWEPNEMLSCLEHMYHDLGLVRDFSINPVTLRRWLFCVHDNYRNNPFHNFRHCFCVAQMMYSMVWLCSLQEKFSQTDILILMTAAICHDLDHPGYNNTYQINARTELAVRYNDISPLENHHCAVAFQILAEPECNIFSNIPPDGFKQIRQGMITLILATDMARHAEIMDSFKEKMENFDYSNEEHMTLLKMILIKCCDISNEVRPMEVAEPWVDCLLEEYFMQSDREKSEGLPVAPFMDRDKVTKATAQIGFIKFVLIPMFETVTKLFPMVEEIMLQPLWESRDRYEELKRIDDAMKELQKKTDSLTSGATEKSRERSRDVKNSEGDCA
Test Description: PDE9A2 enzymatic activity assay (scintillation proximity assay, SPA)
Format: biochemical
Settings: read-out: % inhibition of PDE9A2 (at 10 micromolar concentration), 10 micromolar concentration; values above 100% adjusted to 100%
Give inhibition at 10 µM for every item shown.
Write the answer as a number in %, unit excluded.

Look up inhibition at 10 µM with human PDE9A2 (Homo sapiens, UniProt O76083) for this compound: CCC(CC)Cc1nc2c(cnn2C2CCOCC2)c(=O)[nH]1
98

Look up inhibition at 10 µM with human PDE9A2 (Homo sapiens, UniProt O76083) for this compound: O=c1[nH]c(Cc2c(F)ccc(F)c2Cl)nc2c1cnn2C1CCOCC1
97

Look up inhibition at 10 µM with human PDE9A2 (Homo sapiens, UniProt O76083) for this compound: O=c1[nH]c(Cc2ccccc2OC(F)(F)F)nc2c1cnn2C1CCCNC1 (racemic)
100

Look up inhibition at 10 µM with human PDE9A2 (Homo sapiens, UniProt O76083) for this compound: COc1ccccc1Cc1nc2c(cnn2C2CCN(C(C)=O)C2)c(=O)[nH]1 (racemic)
90

Look up inhibition at 10 µM with human PDE9A2 (Homo sapiens, UniProt O76083) for this compound: CC1CC(n2ncc3c(=O)[nH]c(Cc4ccccn4)nc32)CCO1 (racemic)
88

Look up inhibition at 10 µM with human PDE9A2 (Homo sapiens, UniProt O76083) for this compound: N#Cc1cccc(Cc2nc3c(cnn3C3CCCOC3)c(=O)[nH]2)c1 (racemic)
97

Look up inhibition at 10 µM with human PDE9A2 (Homo sapiens, UniProt O76083) for this compound: CC(=O)N1CCCC(n2ncc3c(=O)[nH]c(CC4CCC4)nc32)C1 (racemic)
96

Look up inhibition at 10 µM with human PDE9A2 (Homo sapiens, UniProt O76083) for this compound: COc1ccccc1Cc1nc2c(cnn2C2CCCOC2)c(=O)[nH]1 (racemic)
97
